target: human GcgR (Homo sapiens, UniProt P47871); experiment: Functional cAMP activity in the presence of 1% HSA; type: cell-based; conditions: read-out: cAMP Rel EC50, hGcgR
Sequence (P47871 26-477): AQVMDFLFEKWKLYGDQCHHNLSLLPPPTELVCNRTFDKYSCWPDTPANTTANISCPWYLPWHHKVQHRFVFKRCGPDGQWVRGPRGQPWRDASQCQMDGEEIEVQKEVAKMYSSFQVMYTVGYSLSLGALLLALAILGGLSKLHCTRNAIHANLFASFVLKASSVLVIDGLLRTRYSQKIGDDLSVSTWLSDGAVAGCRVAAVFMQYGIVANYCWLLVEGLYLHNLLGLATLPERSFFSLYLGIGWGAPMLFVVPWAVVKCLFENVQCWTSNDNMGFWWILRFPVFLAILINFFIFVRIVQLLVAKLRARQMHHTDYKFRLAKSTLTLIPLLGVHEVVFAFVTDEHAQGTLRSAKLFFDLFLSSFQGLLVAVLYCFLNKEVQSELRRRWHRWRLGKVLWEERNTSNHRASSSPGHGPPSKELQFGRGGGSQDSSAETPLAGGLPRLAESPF
Starred links: 1 amine or outer side, 2 acyl side, 3 side chain; linkers in the order of their positions; H or OH if unused. Non-standard residues stand in square brackets, D forms with d. Groups on a side chain read outwards from the residue. *: point of attachment. C18 diacid = O=C(O)CCCCCCCCCCCCCCCCC(=O)*; αMePhe(2-F) = C[C@](N)(Cc1ccccc1F)C(=O)O; γGlu = O=C(O)[C@H](CCC(=O)[*:2])N[*:1]; αMe4Pal = C[C@](N)(Cc1ccncc1)C(=O)O; αMeY = C[C@](N)(Cc1ccc(O)cc1)C(=O)O; 4Pal = N[C@@H](Cc1ccncc1)C(=O)O; αMeL = CC(C)C[C@](C)(N)C(=O)O; αMeS = C[C@](N)(CO)C(=O)O; Orn = NCCC[C@H](N)C(=O)O; AEEA = NCCOCCOCC(=O)O; Aib = CC(C)(N)C(=O)O
EC50 vs 1000 nM: less than gives true (1); not less than gives false (0).

substance	system	cat
H-Y[Aib]QGT[αMePhe(2-F)]TSD[4Pal][αMeS]I[αMeL]LD[Orn][Orn]([AEEA-γGlu-C18 diacid])AQ[αMe4Pal]EFI[dE][αMeY]LIEGGPSSGAPPPSGSE-NH2 [Example 1212]	human GcgR (Homo sapiens, UniProt P47871)	true (1)
H-Y[Aib]QGTFTSD[4Pal]S[Orn][αMeL]LDKK([AEEA-γGlu-γGlu-C18 diacid])AQ[αMe4Pal]AFIE[αMe4Pal]LIE[Aib]GPSSGEPPPSGSE-NH2 [Example 988]	human GcgR (Homo sapiens, UniProt P47871)	true (1)
H-Y[Aib]QGT[αMePhe(2-F)]TSD[4Pal][αMeS]I[αMeL]LD[Orn]K([γGlu-γGlu-C18 diacid])AQ[Aib][Orn]FI[dE][αMeY]LTEGGPSSGEPPPSGTGE-NH2 [Example 543]	human GcgR (Homo sapiens, UniProt P47871)	true (1)
H-Y[Aib]QGTFTSD[4Pal]SK[αMeL]LDKK([γGlu-γGlu-C18 diacid])AQ[Aib]AFIEYLIE[Aib]GPSSGAPPPSGS-NH2 [Example 907]	human GcgR (Homo sapiens, UniProt P47871)	false (0)

Below: the item to evaluate.
Task: Item H-Y[Aib]QGTFTSDFS[Orn][αMeL]LDKK([AEEA-AEEA-γGlu-C18 diacid])AQ[Aib]AFIEYLLE[Aib]GHSSGAPPPSGT-NH2 [Example 182] : EC50 beneath 1000 nM, strictly?
Output: false (0)

###

biological target: hGLP-1R (Homo sapiens); assay: Functional cAMP activity in the presence of 1% HSA; type: cell-based; details: read-out: cAMP Rel EC50, hGLP-1R
Sequence (P43220 24-463): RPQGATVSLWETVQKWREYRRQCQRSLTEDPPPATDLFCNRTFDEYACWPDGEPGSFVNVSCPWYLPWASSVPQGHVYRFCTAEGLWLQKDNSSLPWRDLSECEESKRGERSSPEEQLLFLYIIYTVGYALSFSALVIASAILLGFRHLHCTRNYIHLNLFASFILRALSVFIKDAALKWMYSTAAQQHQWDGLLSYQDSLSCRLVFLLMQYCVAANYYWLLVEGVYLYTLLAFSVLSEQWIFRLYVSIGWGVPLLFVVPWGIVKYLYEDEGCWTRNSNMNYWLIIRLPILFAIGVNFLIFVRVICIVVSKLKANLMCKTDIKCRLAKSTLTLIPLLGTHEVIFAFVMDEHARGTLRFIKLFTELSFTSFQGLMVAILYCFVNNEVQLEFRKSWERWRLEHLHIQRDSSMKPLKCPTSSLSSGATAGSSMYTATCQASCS
Starred links: 1 amine or outer side, 2 acyl side, 3 side chain; linkers in the order of their positions; H or OH if unused. Non-standard residues stand in square brackets, D forms with d. Groups on a side chain read outwards from the residue. *: point of attachment. C20 diacid = O=C(O)CCCCCCCCCCCCCCCCCCC(=O)*; C18 diacid = O=C(O)CCCCCCCCCCCCCCCCC(=O)*; αMePhe(2-F) = C[C@](N)(Cc1ccccc1F)C(=O)O; γGlu = O=C(O)[C@H](CCC(=O)[*:2])N[*:1]; αMe4Pal = C[C@](N)(Cc1ccncc1)C(=O)O; αMeY = C[C@](N)(Cc1ccc(O)cc1)C(=O)O; 4Pal = N[C@@H](Cc1ccncc1)C(=O)O; αMeL = CC(C)C[C@](C)(N)C(=O)O; αMeS = C[C@](N)(CO)C(=O)O; Orn = NCCC[C@H](N)C(=O)O; AEEA = NCCOCCOCC(=O)O; Aib = CC(C)(N)C(=O)O
reportedProperty: log10 EC50 (log10 of the value in nM)
Would you kindly interpret these values as log10 of EC50 expressed in nM?

Task: Identify measured log10 EC50 corresponding to H-Y[Aib]QGTFTSD[4Pal]SQ[αMeL]LD[Orn]K([dE-γGlu-C18 diacid])AQ[αMe4Pal]QFIE[αMeY]LLAGGPSSGAPPPSGSEEE-NH2 [Example 1084]
Output: 2.88

Task: Identify measured log10 EC50 corresponding to H-Y[Aib]QGT[αMePhe(2-F)]TSD[4Pal]SILLDKK([γGlu-γGlu-C18 diacid])AQ[Aib]AFIEYLEEGGPSSGAPPPSGSEE-NH2 [Example 610]
Output: 2.11

Task: Identify measured log10 EC50 corresponding to H-Y[Aib]QGTFTSD[4Pal]SQ[αMeL]LDKK([γGlu-γGlu-C18 diacid])AQ[αMe4Pal]AFIEYLIE[Aib]GPSSGAPPPEGE-NH2 [Example 884]
Output: 2.47

Task: Identify measured log10 EC50 corresponding to H-Y[Aib]QGTFTSDFS[Orn][αMeL]LDKK([AEEA-γGlu-C18 diacid])AQ[Aib]AFIEYLLE[Aib]GPSSG[Aib]PPPSGS-NH2 [Example 239]
Output: 2.62

Task: Identify measured log10 EC50 corresponding to H-Y[Aib]QGTFTSDFSK[αMeL]LDKK([AEEA-γGlu-C20 diacid])AQ[Aib]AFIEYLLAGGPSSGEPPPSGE[AEEA]-NH2 [Example 33]
Output: 2.64

Task: Identify measured log10 EC50 corresponding to H-Y[Aib]QGT[αMePhe(2-F)]TSD[4Pal][αMeS]I[αMeL]LD[Orn]K([AEEA-γGlu-γGlu-C18 diacid])AQ[Aib][Orn]FIEYLIEAGPSSGEPPPEEG-NH2 [Example 485]
Output: 1.07
